Entry source: patent US20240287154A1

# experimental_protocol: Mouse plasma stability (A)
# test_context: pooled mouse plasma, 37° C., 30 min
recorded_endpoint: Mouse Plasma Stability, time point 30 min (%)
Answers are plain numbers, in %.

Ask | # input compound: CCN(CC)CCOC(=O)c1ccc(N)cc1 [Procaine, reference compound] ; wanted: its Mouse Plasma Stability, time point 30 min
Reply | 2.15

====

# target_or_test_system: human MC4R (Homo sapiens)
# Sequence (P32245 whole entry): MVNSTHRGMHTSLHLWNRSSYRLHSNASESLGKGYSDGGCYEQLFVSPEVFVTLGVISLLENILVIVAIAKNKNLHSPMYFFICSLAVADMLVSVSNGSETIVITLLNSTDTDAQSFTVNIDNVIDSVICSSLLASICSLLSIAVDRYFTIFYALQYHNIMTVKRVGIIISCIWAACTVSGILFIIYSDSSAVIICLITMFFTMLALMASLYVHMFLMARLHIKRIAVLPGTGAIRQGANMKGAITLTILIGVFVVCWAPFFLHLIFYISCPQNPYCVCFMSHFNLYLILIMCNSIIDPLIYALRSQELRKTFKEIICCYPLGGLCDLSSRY
# experimental_protocol: Intracellular cAMP levels in live cells, MC3R selectivity relative to MC4R
# Format: cell-based
# test_context: cAMP assays in human MC3R and human MC4R stable cell lines
# Description: The stable cell lines were grown and maintained in selection media consisting of Dulbecco's modified Eagle media (DMEM) with 4.5 g/l D-glucose, and 4 mM L-glutamine (Thermo Fisher Scientific, Waltham, MA), supplemented with 10% fetal bovine serum, 100 units/ml penicillin, 100 μg/ml streptomycin, 2.5 μg/ml amphotericin B, 200 μg/ml hygromycin B (for positive selection of the GScAMP22f luciferase reporter), and Geneticin™ (G418) 700 μg/ml (for MC3R or MC4R selection). […]
Non-standard residues stand in square brackets, D forms with d. Residues, ends and D or L forms follow the SMILES beside them. Nle = CCCC[C@H](N)C(=O)O
recorded_endpoint: MC3R selectivity (relative to MC4R)
Answers are plain numbers.

Use the examples below as a reference point.
- compound: "CCCC[C@H](NC(=O)CNC(=O)COCCOCCNC(=O)CNC(=O)CCc1ccc(I)cc1)C(=O)N[C@H](C)C(=O)N[C@@H](Cc1c[nH]cn1)C(=O)N[C@@H](Cc1ccccc1)C(=O)N[C@@H](CCCNC(=N)N)C(=O)N[C@H](Cc1c[nH]c2ccccc12)C(=O)N[C@@H](CC(=O)O)C(=O)N[C@@H](CCCNC(=N)N)C(=O)N[C@@H](Cc1ccccc1)C(=O)NCC(=O)O"
  target_or_test_system: "human MC4R (Homo sapiens)"
  MC3R selectivity (relative to MC4R): 1197
- compound: "CCCC[C@H](NC(C)=O)C(=O)N[C@H](C)C(=O)N[C@@H](Cc1c[nH]cn1)C(=O)N[C@@H](Cc1ccccc1)C(=O)N[C@@H](CCCNC(=N)N)C(=O)N[C@H](Cc1c[nH]c2ccccc12)C(=O)N[C@@H](CC(=O)O)C(=O)N[C@@H](CCCNC(=N)N)C(=O)N[C@@H](C)C(=O)NCC(=O)O [CTX-1537] (Ac-[Nle][dA]HFR[dW]DRAG-OH)"
  target_or_test_system: "human MC4R (Homo sapiens)"
  MC3R selectivity (relative to MC4R): 278

Now, please, on to the next compound.
Ask | # input compound: CCCC[C@H](NC(C)=O)C(=O)N[C@H](C)C(=O)N[C@@H](Cc1c[nH]cn1)C(=O)N[C@@H](Cc1ccccc1)C(=O)N[C@@H](CCCNC(=N)N)C(=O)N[C@H](Cc1c[nH]c2ccccc12)C(=O)N[C@@H](CC(=O)O)C(=O)N[C@@H](CCCNC(=N)N)C(=O)N[C@H](Cc1ccccc1)C(N)=O [CTX-1159] (Ac-[Nle][dA]HFR[dW]DR[dF]-NH2) ; wanted: its MC3R selectivity (relative to MC4R)
Reply | 213
